Entry source: ChEMBL document CHEMBL2176957

Kindly supply the reported t1/2 values for the records listed here.
system: Liver; assay: Half life in mouse liver microsomes

Q: Give a short answer stating reported t1/2 for `N#Cc1ccc(N2CCN(S(=O)(=O)c3ccc4c(c3)CC(=O)N4)CC2)cc1` .
Ans: 0.95 h

Q: Give a short answer stating reported t1/2 for `CC(=O)c1ccc(N2CCN(S(=O)(=O)c3cc4c(cc3Cl)NC(=O)C4)CC2)cc1` .
Ans: > 1 h

Q: Give a short answer stating reported t1/2 for `CC(=O)c1ccc(N2CCN(S(=O)(=O)c3ccc4c(c3)CC(=O)N4)CC2)cc1` .
Ans: > 1 h

Q: Give a short answer stating reported t1/2 for `O=C1Cc2cc(S(=O)(=O)N3CCN(c4ccc(O)cc4)CC3)ccc2N1` .
Ans: > 1 h

---

biological target: Lysosomal alpha-glucosidase (Homo sapiens, UniProt P10253); assay: Inhibition of wild type recombinant GAA preincubated for 5 mins measured after 45 mins using red-shifted dye by fluorescence assay; settings: read-out: IC50
Kindly supply the reported pIC50 values for the records listed here.
Convention used: pIC50 is expressed as -log10 of the molar concentration.

Q: Give reported pIC50 for `COc1ccc(N2CCN(S(=O)(=O)c3ccc4c(c3)CC(=O)N4)CC2)cc1` (Lysosomal alpha-glucosidase (Homo sapiens, UniProt P10253))
Ans: 4.73

Q: Give reported pIC50 for `O=C1Cc2cc(S(=O)(=O)N3CCN(c4ccc([N+](=O)[O-])cc4)CC3)ccc2N1` (Lysosomal alpha-glucosidase (Homo sapiens, UniProt P10253))
Ans: 5.49

Q: Give reported pIC50 for `O=Cc1ccc(N2CCN(S(=O)(=O)c3ccc4c(c3)CC(=O)N4)CC2)cc1` (Lysosomal alpha-glucosidase (Homo sapiens, UniProt P10253))
Ans: 5.39

Q: Give reported pIC50 for `O=C1Cc2cc(S(=O)(=O)N3CCN(c4ccc(O)cc4)CC3)ccc2N1` (Lysosomal alpha-glucosidase (Homo sapiens, UniProt P10253))
Ans: 5.63

Q: Give reported pIC50 for `CC(=O)c1ccc(N2CCN(S(=O)(=O)c3ccc4c(c3)C(Cl)(Cl)C(=O)N4)CC2)cc1` (Lysosomal alpha-glucosidase (Homo sapiens, UniProt P10253))
Ans: 4.39

Q: Give reported pIC50 for `CC(=O)c1ccc(N2CCN(S(=O)(=O)c3ccc4c(c3)CC(=O)N4)CC2)cc1` (Lysosomal alpha-glucosidase (Homo sapiens, UniProt P10253))
Ans: 6.03

Q: Give reported pIC50 for `CC(=O)c1ccc(N2CCN(S(=O)(=O)c3cc4c(cc3Cl)NC(=O)C4)CC2)cc1` (Lysosomal alpha-glucosidase (Homo sapiens, UniProt P10253))
Ans: 5.79

Q: Give reported pIC50 for `O=C1Cc2cc(S(=O)(=O)N3CCN(c4ccc(CO)cc4)CC3)ccc2N1` (Lysosomal alpha-glucosidase (Homo sapiens, UniProt P10253))
Ans: 4.89

Q: Give reported pIC50 for `O=C1Cc2cc(S(=O)(=O)N3CCN(c4cccc(C(F)(F)F)c4)CC3)ccc2N1` (Lysosomal alpha-glucosidase (Homo sapiens, UniProt P10253))
Ans: 4.83

---

experiment: Aqueous solubility in PBS buffer
Kindly supply the reported solubility values for the records listed here.
Numbers only here, please. The scale is µM.

Q: Give a short answer stating reported solubility for `CC(=O)c1ccc(N2CCN(S(=O)(=O)c3cc4c(cc3Cl)NC(=O)C4)CC2)cc1` .
Ans: 20.8

Q: Give a short answer stating reported solubility for `O=C1Cc2cc(S(=O)(=O)N3CCN(c4ccc(O)cc4)CC3)ccc2N1` .
Ans: 37.3

Q: Give a short answer stating reported solubility for `N#Cc1ccc(N2CCN(S(=O)(=O)c3ccc4c(c3)CC(=O)N4)CC2)cc1` .
Ans: 14.9

Q: Give a short answer stating reported solubility for `CC(=O)c1ccc(N2CCN(S(=O)(=O)c3ccc4c(c3)CC(=O)N4)CC2)cc1` .
Ans: 7.9

---

molecular target: Lysosomal alpha-glucosidase (Homo sapiens); test: Inhibition of wild type recombinant GAA preincubated for 5 mins measured after 45 mins using blue-shifted dye by fluorescence assay; details: read-out: IC50
Readout kind: IC50 (µM)
Numbers only here, please. The scale is µM.

Q: Give a short answer stating reported IC50 for `COc1ccc(N2CCN(S(=O)(=O)c3ccc4c(c3)CC(=O)N4)CC2)cc1` .
Ans: 23.7

Q: Give a short answer stating reported IC50 for `O=C1Cc2cc(S(=O)(=O)N3CCN(c4ccc([N+](=O)[O-])cc4)CC3)ccc2N1` .
Ans: 3.66

Q: Give a short answer stating reported IC50 for `COC(=O)c1ccc(N2CCN(S(=O)(=O)c3ccc4c(c3)CC(=O)N4)CC2)cc1` .
Ans: 25.9

Q: Give a short answer stating reported IC50 for `CC(=O)c1ccc(N2CCN(S(=O)(=O)c3ccc4c(c3)CC(=O)N4)CC2)cc1` .
Ans: 0.75

Q: Give a short answer stating reported IC50 for `CC(=O)c1ccc(N2CCN(S(=O)(=O)c3cc4c(cc3Cl)NC(=O)C4)CC2)cc1` .
Ans: 1.63

---

target: Lysosomal alpha-glucosidase (Homo sapiens); assay: Inhibition of wild type recombinant GAA preincubated for 5 mins measured after 45 mins using blue-shifted dye by fluorescence assay; settings: read-out: IC50
pIC50: −log10 of the molar value.
Short version: pIC50 at least 5 is 1.0, less is 0.0.

Q: Reported pIC50 reaches at least 5 for `O=C1Cc2cc(S(=O)(=O)N3CCN(c4cccc(C(F)(F)F)c4)CC3)ccc2N1` ?
Ans: 0.0

Q: Reported pIC50 reaches at least 5 for `O=Cc1ccc(N2CCN(S(=O)(=O)c3ccc4c(c3)CC(=O)N4)CC2)cc1` ?
Ans: 1.0

Q: Reported pIC50 reaches at least 5 for `CC(=O)c1ccc(N2CCN(S(=O)(=O)c3ccc4c(c3)C(Cl)(Cl)C(=O)N4)CC2)cc1` ?
Ans: 0.0

Q: Reported pIC50 reaches at least 5 for `N#Cc1ccc(N2CCN(S(=O)(=O)c3ccc4c(c3)CC(=O)N4)CC2)cc1` ?
Ans: 1.0

Q: Reported pIC50 reaches at least 5 for `O=C1Cc2cc(S(=O)(=O)N3CCN(c4ccc(Cl)cc4)CC3)ccc2N1` ?
Ans: 0.0

Q: Reported pIC50 reaches at least 5 for `O=C1Cc2cc(S(=O)(=O)N3CCN(c4ccc(O)cc4)CC3)ccc2N1` ?
Ans: 1.0

---

test system: Caco-2; experiment: Permeability from apical to basolateral side of human Caco2 cells
Readout kind: Papp (×10⁻⁶ cm/s)
Numbers only here, please. The scale is ×10⁻⁶ cm/s.

Q: Give a short answer stating reported Papp for `CC(=O)c1ccc(N2CCN(S(=O)(=O)c3cc4c(cc3Cl)NC(=O)C4)CC2)cc1` .
Ans: 54.3

Q: Give a short answer stating reported Papp for `CC(=O)c1ccc(N2CCN(S(=O)(=O)c3ccc4c(c3)CC(=O)N4)CC2)cc1` .
Ans: 14.6

Q: Give a short answer stating reported Papp for `O=C1Cc2cc(S(=O)(=O)N3CCN(c4ccc(O)cc4)CC3)ccc2N1` .
Ans: 17.8

---

biological target: Lysosomal alpha-glucosidase (Homo sapiens); assay: Inhibition of wild type recombinant GAA preincubated for 5 mins measured after 45 mins using red-shifted dye by fluorescence assay; conditions: read-out: IC50
Readout kind: pIC50
Convention used: pIC50 is expressed as -log10 of the molar concentration.

Q: Give a short answer stating reported pIC50 for `N#Cc1ccc(N2CCN(S(=O)(=O)c3ccc4c(c3)CC(=O)N4)CC2)cc1` .
Ans: 5.49

Q: Give a short answer stating reported pIC50 for `O=C1Cc2cc(S(=O)(=O)N3CCN(c4ccc(Cl)cc4)CC3)ccc2N1` .
Ans: 4.03

Q: Give a short answer stating reported pIC50 for `COC(=O)c1ccc(N2CCN(S(=O)(=O)c3ccc4c(c3)CC(=O)N4)CC2)cc1` .
Ans: 4.44

Q: Give a short answer stating reported pIC50 for `CC(=O)N1CCN(S(=O)(=O)c2ccc3c(c2)CC(=O)N3)CC1` .
Ans: 4.83
